Tested on: gel-filtered platelets
assay.name: In vitro inhibition of thrombin-induced gel-filtered platelet aggregation
Assay type: cell-based
conditions.used: Platelet; human gel-filtered platelets; agonist thrombin 50 μL of 1 unit/mL; read-out: Thrmb IC50 (Thrombin-induced aggregation of gel-filtered platelets)
metric.name: pIC50
pIC50 here is simply -log10 of the concentration when that concentration is written in mol/L.

Input line: // lookup pIC50 for NCCNC(=O)[C@H](Cc1cccs1)NC(=O)[C@H](Cc1ccc(Cl)cc1)NC(=O)c1ccc2c(CN3CCCC3)cn(Cc3c(Cl)cccc3Cl)c2c1 [Compound 177]
Output line: 5.36

Input line: // lookup pIC50 for COc1ccc(C[C@H](NC(=O)Nc2ccc3c(CN4CCCC4)cn(Cc4ccc(F)cc4)c3c2)C(=O)N[C@@H](CCCNC(=N)N)C(=O)NCCCc2ccccc2)cc1 [Compound 4]
Output line: 4.83

Input line: // lookup pIC50 for N=C(N)NCCC[C@H](NC(=O)[C@H](Cc1ccc(F)cc1)NC(=O)Nc1ccc2c(CN3CCCC3)cn(Cc3ccc(F)cc3)c2c1)C(=O)NCc1ccccc1 [Compound 26]
Output line: 6.26

More entries:
Input line: // lookup pIC50 for COc1ccc(C[C@H](NC(=O)Nc2ccc3c(CN4CCCC4)cn(Cc4ccc5ccccc5c4)c3c2)C(=O)N[C@@H](CCCNC(=N)N)C(=O)NCc2ccccc2)cc1 [Compound 15]
Output line: 4.93

Input line: // lookup pIC50 for Cc1ccccc1Cn1cc(CN2CCCC2)c2ccc(NC(=O)N[C@@H](Cc3ccc(-c4ccccc4)cc3)C(=O)N[C@@H](CCCNC(=N)N)C(=O)NCc3ccccc3)cc21 [Compound 39]
Output line: 5.46
